- TARGET: interaction between HDM2 and p53 (GST-hMDM2 / biotinylated-p53) (Homo sapiens (Human), UniProt Q00987)
- Sequence (Q00987 1-188): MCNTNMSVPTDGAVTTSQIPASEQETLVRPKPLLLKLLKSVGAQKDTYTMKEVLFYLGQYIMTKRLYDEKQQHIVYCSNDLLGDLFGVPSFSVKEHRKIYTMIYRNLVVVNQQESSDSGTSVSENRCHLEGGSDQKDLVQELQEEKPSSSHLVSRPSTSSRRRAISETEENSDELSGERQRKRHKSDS
- RUN DESCRIPTION: biochemical

{"COMPOUND": "CN1C(=O)[C@@H](c2ccccc2)O[C@H](c2ccc(Br)cc2)[C@@H]1c1ccc(Br)cc1", "IC50 [µM]": 12.3}
{"COMPOUND": "CC[C@H](C(=O)O)N1C(=O)CO[C@H](c2ccc(Cl)cc2)[C@@H]1c1ccc(Cl)cc1", "IC50 [µM]": 40.2}
{"COMPOUND": "O=C1CO[C@@H](c2ccc(Cl)cc2)[C@@H](c2ccc(Cl)cc2)N1CC1CC1", "IC50 [µM]": 41.8}
{"COMPOUND": "CCC[C@H](C(=O)NCC(N)=O)N1C(=O)[C@H](Cc2ccc(C#N)cc2)O[C@@H](c2ccc(Cl)cc2)[C@H]1c1ccc(Cl)cc1 (racemic)", "IC50 [µM]": 0.486}

====

- TARGET: interaction between HDM2 and p53 (GST-hMDM2 (1-188) / biotinylated-p53 (1-83)) (Homo sapiens (Human), UniProt Q00987)
- Sequence (Q00987 1-188): as above
- RUN DESCRIPTION: HTRF2 Assay (improved HTRF assay)
- Type: binding
- CONDITIONS USED: 0.2 nM GST-hMDM2 (1-188), 0.5 nM biotinylated-p53 (1-83), 100 mM KF; read-out: HTRF2 IC50

{"MOLECULE": "CCC[C@H](c1nnn[nH]1)N1C(=O)[C@H](Cc2ccc(C#N)c(F)c2)O[C@@H](c2ccc(Cl)cc2)[C@H]1c1ccc(Cl)cc1 [Example 35]", "IC50": "0.473 µM"}
{"MOLECULE": "CC(C)N1C(=O)CO[C@H](c2ccc(Br)cc2)[C@@H]1c1ccc(Br)cc1", "IC50": "> 100 µM"}
{"MOLECULE": "CCC[C@H](CC(=O)O)N1C(=O)[C@@H](Cc2ccc(F)cc2)O[C@H](c2cccc(Cl)c2)[C@@H]1c1ccc(Cl)cc1", "IC50": "1.15 µM"}
{"MOLECULE": "CCC[C@H](C(=O)O)N1C(=O)[C@H](Cc2cccc(S(C)(=O)=O)c2)O[C@@H](c2ccc(Cl)cc2)[C@H]1c1ccc(Cl)cc1 [Example 50]", "IC50": "0.568 µM"}
{"MOLECULE": "CN1C(=O)/C(=C/c2cccnc2)O[C@H](c2ccc(Cl)cc2)C1c1ccc(Cl)cc1 (mixture of isomers) [Example 39]", "IC50": "6.64 µM"}
{"MOLECULE": "CCC[C@H](C(=O)O)N1C(=O)[C@H](Cc2ccc(S(C)(=O)=O)cc2C#N)O[C@@H](c2ccc(Cl)cc2)[C@H]1c1ccc(Cl)cc1 [Example 55]", "IC50": "0.179 µM"}
{"MOLECULE": "CCC[C@H](CCC(=O)O)N1C(=O)CO[C@H](c2ccc(Cl)cc2)[C@@H]1c1ccc(Cl)cc1", "IC50": "4.14 µM"}

====

- TARGET: interaction between HDM2 and p53 (GST-hMDM2 (1-188) / biotinylated-p53 (1-83)) (Homo sapiens (Human))
- RUN DESCRIPTION: HTRF2 Assay (improved HTRF assay)
- Type: binding
- CONDITIONS USED: 0.2 nM GST-hMDM2 (1-188), 0.5 nM biotinylated-p53 (1-83), 100 mM KF; read-out: HTRF2 IC50
pIC50: −log10 of the molar value.

{"COMPOUND": "CCC[C@H](C(=O)O)N1C(=O)[C@H](Cc2ccccc2OC)O[C@@H](c2ccc(Cl)cc2)[C@H]1c1ccc(Cl)cc1", "pIC50": 6.30}
{"COMPOUND": "O=C1CO[C@@H](c2ccc(Cl)cc2)[C@@H](c2ccc(Cl)cc2)N1c1cnccn1", "pIC50": 5.03}
{"COMPOUND": "CCC[C@H](CC(=O)O)N1C(=O)[C@H](Cc2ccc(F)cc2)O[C@@H](c2cccc(Cl)c2)[C@H]1c1ccc(Cl)cc1", "pIC50": 5.44}
{"COMPOUND": "CCC[C@H](C(=O)O)N1C(=O)[C@H](Cc2ccccc2F)O[C@@H](c2ccc(Cl)cc2)[C@H]1c1ccc(Cl)cc1 [Example 47]", "pIC50": 6.40}
{"COMPOUND": "CCC[C@H](C(=O)O)N1C(=O)[C@H](Cc2cccc(OC)c2)O[C@@H](c2ccc(Cl)cc2)[C@H]1c1ccc(Cl)cc1", "pIC50": 5.95}
{"COMPOUND": "CCC[C@H](C(=O)O)N1C(=O)[C@H](CCN2CCOCC2)O[C@@H](c2ccc(Cl)cc2)[C@H]1c1ccc(Cl)cc1", "pIC50": 5.83}
{"COMPOUND": "CCC[C@H](C(=O)O)N1C(=O)[C@H](Cc2ccc(F)cc2C#N)O[C@@H](c2ccc(Cl)cc2)[C@H]1c1ccc(Cl)cc1 [Example 45]", "pIC50": 6.33}
{"COMPOUND": "O=C1CO[C@@H](c2ccc(Cl)cc2)[C@@H](c2ccc(Cl)cc2)N1c1ccnc(Cl)c1", "pIC50": 5.14}
{"COMPOUND": "CCC[C@H](C(=O)N1CCN(CCC(=O)O)CC1)N1C(=O)CO[C@@H](c2ccc(Cl)cc2)[C@H]1c1ccc(Cl)cc1", "pIC50": 5.44}
{"COMPOUND": "CCC[C@H](COC(N)=O)N1C(=O)CO[C@@H](c2ccc(Cl)cc2)[C@H]1c1ccc(Cl)cc1", "pIC50": 5.44}
{"COMPOUND": "CCC[C@H](C(=O)O)N1C(=O)[C@H](Cc2cccc(F)c2)O[C@@H](c2ccc(Cl)cc2)[C@H]1c1ccc(Cl)cc1 [Example 48]", "pIC50": 6.38}
{"COMPOUND": "CCC[C@H](C(N)=O)N1C(=O)CO[C@@H](c2ccc(Cl)cc2)[C@H]1c1ccc(Cl)cc1", "pIC50": 5.37}
{"COMPOUND": "CCC[C@H](C(=O)O)N1C(=O)[C@H](Cc2ccc(S(=O)(=O)C(F)(F)F)cc2)O[C@@H](c2ccc(Cl)cc2)[C@H]1c1ccc(Cl)cc1 [Example 56]", "pIC50": 6.34}
{"COMPOUND": "CCC[C@H](C(=O)O)N1C(=O)[C@H](CCN2CCCCC2)O[C@@H](c2ccc(Cl)cc2)[C@H]1c1ccc(Cl)cc1", "pIC50": 5.76}
{"COMPOUND": "CCC[C@H](C(=O)O)N1C(=O)[C@H](CCN2CCN(C)CC2)O[C@@H](c2ccc(Cl)cc2)[C@H]1c1ccc(Cl)cc1", "pIC50": 6.10}

====

The reader will find reported pIC50 values listed item by item below.
- TARGET: interaction between HDM2 and p53 (GST-hMDM2 / biotinylated-p53) (Homo sapiens (Human))
- RUN DESCRIPTION: biochemical
pIC50: −log10 of the molar value.
PARAMETER MEASURED: pIC50

{"COMPOUND": "C[C@H]1O[C@@H](c2ccc(Br)cc2)[C@@H](c2ccc(Br)cc2)N(C)C1=O", "PARAMETER MEASURED": "pIC50", "RESULT NUMBER": 4.33}
{"COMPOUND": "CCCC[C@H](C(=O)O)N1C(=O)CO[C@@H](c2ccc(Cl)cc2)[C@H]1c1ccc(Cl)cc1", "PARAMETER MEASURED": "pIC50", "RESULT NUMBER": 4.56}
{"COMPOUND": "CCC[C@@H](C(=O)O)N1C(=O)[C@@H](Cc2ccncc2)O[C@H](c2ccc(Cl)cc2)C1c1ccc(Cl)cc1 (mixture of isomers) [Example 42]", "PARAMETER MEASURED": "pIC50", "RESULT NUMBER": 6.27}
{"COMPOUND": "O=CC[C@@H]1O[C@@H](c2cccc(Cl)c2)[C@@H](c2ccc(Cl)cc2)N(CC2CC2)C1=O (racemic) [Example 15]", "PARAMETER MEASURED": "pIC50", "RESULT NUMBER": 5.40}
{"COMPOUND": "CCC[C@H](C(=O)NCC(=O)O)N1C(=O)[C@H](Cc2ccc(C#N)c(F)c2)O[C@@H](c2ccc(Cl)cc2)[C@H]1c1ccc(Cl)cc1", "PARAMETER MEASURED": "pIC50", "RESULT NUMBER": 6.41}
{"COMPOUND": "CCC[C@H](COC(N)=O)N1C(=O)CO[C@@H](c2ccc(Cl)cc2)[C@H]1c1ccc(Cl)cc1", "PARAMETER MEASURED": "pIC50", "RESULT NUMBER": 5.43}
{"COMPOUND": "CN1C(=O)[C@H](O)O[C@@H](c2ccc(Cl)cc2)[C@H]1c1ccc(Cl)cc1", "PARAMETER MEASURED": "pIC50", "RESULT NUMBER": 4.17}
{"COMPOUND": "CN1C(=O)CO[C@@H](c2ccc(Cl)cc2)[C@H]1c1ccc(Cl)cc1 (mixture of isomers)", "PARAMETER MEASURED": "pIC50", "RESULT NUMBER": 4.41}
